From: PubChem BioAssay (NCI)

- System: MCF7 breast
- testDetails: NCI-60 one-dose screen, 48 h (100 = growth as untreated, 0 = no growth, -100 = all killed)
- conditions: 10 µM unless noted
The panel holds about 83,000 compounds, 20% with a hit somewhere; the sample as a whole holds those more often.
measurementKind: growth (%)
Response body: numeric value in %, unit text excluded.

Previously resolved entries follow.
{"compound": "COc1ccccc1N=Nc1c(O)ccc2cc(S(=O)(=O)O)ccc12", "subjectOfTest": "MCF7 breast", "unitsLabel": "%", "recordedResult": 93.2}
{"compound": "C#Cc1cccc(NC(=O)c2ccc(Cl)cc2Cl)c1", "subjectOfTest": "MCF7 breast", "unitsLabel": "%", "recordedResult": 90.3}
{"compound": "C=CCOC(=O)C(=O)OCC=C", "subjectOfTest": "MCF7 breast", "unitsLabel": "%", "recordedResult": 101}
{"compound": "CCOC(=O)C1OC1c1ccccc1 (centres undefined)", "subjectOfTest": "MCF7 breast", "unitsLabel": "%", "recordedResult": 96}
{"compound": "CCC/C=C(/C(C)=O)C(=O)OCC", "subjectOfTest": "MCF7 breast", "unitsLabel": "%", "recordedResult": 114}
{"compound": "O=P(O)(O)OCC(O)CO (centres undefined)", "subjectOfTest": "MCF7 breast", "unitsLabel": "%", "recordedResult": 95.6}
{"compound": "Sc1ccc(Nc2c3ccccc3nc3ccccc23)cc1", "subjectOfTest": "MCF7 breast", "unitsLabel": "%", "recordedResult": 71.7}
{"compound": "Clc1ccc(-c2n[nH]c3c2Cc2ccccc2-3)cc1Cl", "subjectOfTest": "MCF7 breast", "unitsLabel": "%", "recordedResult": 35.4}
{"compound": "CC[N+](C)(CC)CCO", "subjectOfTest": "MCF7 breast", "unitsLabel": "%", "recordedResult": 103}
{"compound": "COCCOCCCl", "subjectOfTest": "MCF7 breast", "unitsLabel": "%", "recordedResult": 100}

Would you mind telling me what growth value was observed for `Cc1ccc(C)n1-c1ccsc1C(=O)NNC(=O)C(Cl)Cl` ? 96.9

Would you mind telling me what growth value was observed for `Cc1ccc(C(=O)N/N=C/c2ccc3c(c2)OCO3)cc1` ? 103

Would you mind telling me what growth value was observed for CCCC1(c2ccccc2)NC(=O)NC1=O (centres undefined) ? 98.6

Would you mind telling me what growth value was observed for `c1ccc(CN2COc3c(ccc4c3OCN(Cc3ccccc3)C4)C2)cc1` ? 28.5

###

Each entry below carries its reported growth.
- Test system: ACHN renal
- testDetails: NCI-60 one-dose screen, 48 h (100 = growth as untreated, 0 = no growth, -100 = all killed)
- conditions: 10 µM
This is part of a sample that, as a whole, favours compounds with a hit. Of some 83,000 tested, about 20% had one in any assay.
Response body: numeric value in %, unit text excluded.

{"molecule": "CC(C)NC(=O)OCc1c(COC(=O)NC(C)C)c(-c2ccc(Cl)c(Cl)c2)n2c1SCC2", "growth, %": 18.1}
{"molecule": "CCOC(=O)c1cc(/C=C/c2cccc(Cl)c2)on1", "growth, %": 90.9}
{"molecule": "O=C(O)CCCc1ccccc1", "growth, %": 108}
{"molecule": "c1ccc2c(N3CCCCC3)ncnc2c1", "growth, %": 81.9}
{"molecule": "Oc1ccc(O)cc1", "growth, %": 85.4}
{"molecule": "COC(=O)c1ccccc1N(C)C", "growth, %": 113}

Now turn to the next molecule.
Would you mind telling me what growth value was observed for C#CC(C(C)C)N(CCO)CCCC (configuration not stated) ? 100
